Hey, just so you know, these numbers are from patent US20080227711A1.

Biological target: T1, murine CXCL1/KC (murine, UniProt P12850 25-96)
T1 sequence: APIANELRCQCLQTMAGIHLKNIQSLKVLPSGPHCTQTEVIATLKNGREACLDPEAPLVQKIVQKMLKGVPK
Experiment: SPR (Biacore 3000), Evasin-3 from E. coli immobilized on CM4 chip, Kd=kd/ka
parameter: Kd (nM)
Numbers only here, please. The scale is nM.

Input: Look up Kd for this binder: recombinant Evasin-3 produced in E. coli (Met-Evasin-3) (other, No tag, not glycosylated; also called mature Met-Evasin-3) MLVSTIESRTSGDGADNFDVVSCNKNCTSGQNECPEGCFCGLLGQNKKGHCYKIIGNLSGEPPVVRR
Output: 4.56
